# Test system: HepG2
# experiment: cytotoxicity call (relative viability < 0.9)
# run.conditions: 10 µM
Hit rate of the full screen: of about 39,000 compounds, about 3,300 (8.5%) were called active. The sample holds actives, similar compounds and a random draw of the others, so the mix is not that of the screen.
Outcomes: active, inactive

| compound | assigned.label |
| --- | --- |
| C[C@H](CO)N1C[C@H](C)[C@H](CN(C)C(=O)Nc2ccccc2)Oc2ccc(NC(=O)Nc3ccc(C(F)(F)F)cc3)cc2C1=O | active |
| CN1C(=O)c2cc(NC(=O)C3CCOCC3)ccc2OC[C@@H]2O[C@H](CC(=O)NCCc3ccncc3)CC[C@@H]21 | inactive |
| COc1cc(C(=O)O[C@H]2CC[C@@]3(C)[C@@H]4CC[C@H]5[C@]6(O)C[C@H](O)[C@@]7(O)[C@@H](CN8C[C@@H](C)CC[C@H]8[C@@]7(C)O)[C@]6(O)C[C@@]53O[C@@]24O)cc(OC)c1OC | inactive |
| CC(C)(C)NCC(O)c1cc(O)cc(O)c1.O=S(=O)(O)O (centres undefined) | inactive |
| C[C@@H]1CCCCO[C@@H](CN(C)C(=O)Nc2ccc3c(c2)OCO3)[C@H](C)CN([C@H](C)CO)C(=O)c2cc(NC(=O)NC3CCCCC3)ccc2O1 | inactive |
| C[C@@H]1CN([C@@H](C)CO)C(=O)c2cc(NC(=O)Nc3ccc(C(F)(F)F)cc3)ccc2O[C@H]1CN(C)C(=O)Nc1ccc(C(F)(F)F)cc1 | inactive |
| C[C@@H]1CN([C@@H](C)CO)C(=O)c2cc(NC(=O)Nc3ccccc3)ccc2O[C@@H]1CN(C)C(=O)Nc1ccc(C(F)(F)F)cc1 | inactive |
| C[C@H]1CN([C@@H](C)CO)C(=O)c2cc(NC(=O)CCC(F)(F)F)ccc2O[C@H]1CN(C)C(=O)Nc1ccc(C(F)(F)F)cc1 | active |
| C[C@@H]1CCCCO[C@@H](CN(C)C(=O)C2CCCCC2)[C@@H](C)CN([C@@H](C)CO)C(=O)c2cc(NS(=O)(=O)c3ccc(Cl)cc3)ccc2O1 | inactive |
| C[C@H](CO)N1C[C@H](C)[C@H](CN(C)C(=O)Nc2cc(F)ccc2F)Oc2cc(/C=C/c3ccccc3)ccc2S1(=O)=O | inactive |
| CC(C)NCC(O)c1cc(O)cc(O)c1 (centres undefined) | active |
| C[C@@H]1CCCCO[C@H](CN(C)C(=O)Nc2ccc3c(c2)OCO3)[C@H](C)CN([C@@H](C)CO)C(=O)c2cc(NC(=O)NC3CCCCC3)ccc2O1 | inactive |
| C[C@@H]1CN([C@H](C)CO)C(=O)c2cc(NC(=O)CCC(F)(F)F)ccc2O[C@@H]1CN(C)C(=O)Nc1ccc(C(F)(F)F)cc1 | inactive |
| C[C@@H]1CN([C@H](C)CO)C(=O)c2cc(NC(=O)Nc3ccccc3)ccc2O[C@@H]1CN(C)C(=O)Nc1ccc(C(F)(F)F)cc1 | inactive |

* * *

# Tested on: HepG2
# experiment: cytotoxicity call (relative viability < 0.9)
# run.conditions: 10 µM
Screen size: about 39,000 compounds; about 3,300 (8.5%) were called active. The sample holds actives, similar compounds and a random draw of the others, so the mix is not that of the screen.
Possible outcomes: True for active, False for inactive

| input.smiles | assigned.label |
| --- | --- |
| C[C@@H]1CN([C@@H](C)CO)S(=O)(=O)c2ccc(C#Cc3ccncc3)cc2O[C@@H]1CN(C)S(=O)(=O)c1ccccc1 | True |
| COc1ccc(S(=O)(=O)N(C)C[C@@H]2OCCCC[C@@H](C)Oc3ccc(NC(=O)Nc4ccc(F)cc4)cc3C(=O)N([C@@H](C)CO)C[C@H]2C)cc1 | False |
| C[C@H](CO)N1C[C@H](C)[C@H](CN(C)S(=O)(=O)c2ccccc2)Oc2cc(C#Cc3ccncc3)ccc2S1(=O)=O | True |
| C[C@H]1CN([C@@H](C)CO)S(=O)(=O)c2ccc(C#Cc3ccncc3)cc2O[C@@H]1CN(C)S(=O)(=O)c1ccccc1 | True |
| C[C@@H]1CN([C@@H](C)CO)C(=O)c2cccc(NC(=O)Nc3ccc(F)cc3)c2O[C@H]1CN(C)Cc1ccc(C(F)(F)F)cc1 | False |
| NNC(=O)c1ccncc1.Nc1ccc(C(=O)O)c(O)c1 | True |
| C[C@H](CO)N1C[C@H](C)[C@@H](CN(C)Cc2ccc(C(F)(F)F)cc2)Oc2c(NC(=O)Nc3ccc(F)cc3)cccc2C1=O | True |
| C[C@@H]1CN([C@@H](C)CO)C(=O)c2cccc(NC(=O)Nc3ccc(C(F)(F)F)cc3)c2O[C@@H]1CN(C)Cc1ccc(C(F)(F)F)cc1 | False |
| Nc1ccc(C(=O)O)c(O)c1 | False |
| CN(C)CC(=O)N[C@@H]1CC[C@H](CCNC(=O)C2CCC2)O[C@H]1CO | False |
| C[C@@H]1CN([C@H](C)CO)C(=O)c2cccc(NC(=O)Nc3ccc(C(F)(F)F)cc3)c2O[C@@H]1CN(C)Cc1ccc(C(F)(F)F)cc1 | True |
| C[C@@H]1CN([C@H](C)CO)C(=O)c2cc(NC(=O)Cc3ccccc3)ccc2O[C@H]1CN(C)S(=O)(=O)c1ccccc1 | False |
| C[C@H](CO)N1C[C@H](C)[C@@H](CN(C)Cc2ccc(C(F)(F)F)cc2)Oc2c(NC(=O)Nc3ccc(C(F)(F)F)cc3)cccc2C1=O | False |
| Cc1[nH]c2ncnn2c(=O)c1NS(C)(=O)=O | False |
| CC(=O)Nc1c(C)[nH]c2ncnn2c1=O | True |
| C[C@H]1CN([C@@H](C)CO)C(=O)c2cccc(NC(=O)C3CC3)c2O[C@H]1CN(C)S(=O)(=O)c1ccc(F)cc1 | False |

* * *

# System: HepG2
# experiment: cytotoxicity call (relative viability < 0.9)
# run.conditions: 10 µM
About 3,300 (8.5%) of roughly 39,000 compounds were called active. The list comes from a sample in which actives are over-represented; it also holds close analogues and randomly drawn compounds.
Classes used: active, inactive

| input.smiles | target.desc | assigned.label |
| --- | --- | --- |
| C[C@H]1CN([C@@H](C)CO)C(=O)Cc2cc(NC(=O)Cn3cnnn3)ccc2O[C@@H]1CN(C)Cc1ccccc1 | HepG2 | inactive |
| C[C@H]1CN([C@@H](C)CO)C(=O)c2cccc(NS(=O)(=O)c3ccc(F)cc3)c2O[C@@H]1CN(C)Cc1ccc(Cl)c(Cl)c1 | HepG2 | inactive |
| COc1ccc(-c2cc(C(F)F)nn2-c2ccc(S(N)(=O)=O)cc2)cc1F | HepG2 | inactive |
| C[C@@H]1CCCCO[C@@H](CN(C)Cc2ccc(C(=O)O)cc2)[C@@H](C)CN([C@H](C)CO)C(=O)c2cc(NS(=O)(=O)c3cccs3)ccc2O1 | HepG2 | inactive |
| C[C@H]1CN([C@@H](C)CO)S(=O)(=O)c2ccc(C3=CCCC3)cc2O[C@H]1CN(C)C(=O)Cc1ccncc1 | HepG2 | inactive |
| CC(C)NC(=O)Nc1ccc2c(c1)C(=O)N([C@H](C)CO)C[C@H](C)[C@H](CN(C)S(C)(=O)=O)OCCCC[C@H](C)O2 | HepG2 | inactive |
| CSc1ncc(C(=O)NN)n1C | HepG2 | inactive |
| C[C@H](CO)N1C[C@H](C)[C@@H](CN(C)S(=O)(=O)c2ccc(Cl)cc2)Oc2ccc(NC(=O)Nc3ccc(C(F)(F)F)cc3)cc2CC1=O | HepG2 | active |
| C[C@H](CO)N1C[C@H](C)[C@@H](CN(C)Cc2ccc(C(=O)O)cc2)Oc2ccc(NC(=O)c3ccncc3)cc2C1=O | HepG2 | inactive |
| Cc1ccc(S(N)(=O)=O)cc1 | HepG2 | inactive |
| C[C@@H]1CN([C@@H](C)CO)C(=O)Cc2cc(NC(=O)Nc3ccc(C(F)(F)F)cc3)ccc2O[C@H]1CN(C)S(=O)(=O)c1ccc(Cl)cc1 | HepG2 | inactive |
| Cc1oc(C(C)(C)C)cc1C(=O)Nc1ccc(C(C)C)cc1 | HepG2 | inactive |
| C[C@H]1CN([C@@H](C)CO)C(=O)Cc2cc(NC(=O)Nc3cccc(C(F)(F)F)c3)ccc2O[C@H]1CN(C)S(=O)(=O)c1ccc(Oc2ccccc2)cc1 | HepG2 | active |
| CCc1cccc(C(C)C)c1NC(=O)Nc1ccccc1 | HepG2 | inactive |
| C[C@@H]1CN([C@H](C)CO)C(=O)Cc2cc(NC(=O)Nc3ccc(C(F)(F)F)cc3)ccc2O[C@H]1CN(C)S(=O)(=O)c1ccc(Cl)cc1 | HepG2 | inactive |
| C[C@H]1CN([C@@H](C)CO)C(=O)c2cc(NS(=O)(=O)c3cn(C)cn3)ccc2O[C@@H]1CN(C)S(=O)(=O)c1ccccc1 | HepG2 | inactive |

The origin of these recorded values is the antibiotic and cytotoxicity screens of Wong et al. (2023).
